# Tested System: 3-hydroxy-3-methylglutaryl-coenzyme A reductase (Rattus norvegicus)
# Construct: from tissue
# Sequence (P51639 whole entry): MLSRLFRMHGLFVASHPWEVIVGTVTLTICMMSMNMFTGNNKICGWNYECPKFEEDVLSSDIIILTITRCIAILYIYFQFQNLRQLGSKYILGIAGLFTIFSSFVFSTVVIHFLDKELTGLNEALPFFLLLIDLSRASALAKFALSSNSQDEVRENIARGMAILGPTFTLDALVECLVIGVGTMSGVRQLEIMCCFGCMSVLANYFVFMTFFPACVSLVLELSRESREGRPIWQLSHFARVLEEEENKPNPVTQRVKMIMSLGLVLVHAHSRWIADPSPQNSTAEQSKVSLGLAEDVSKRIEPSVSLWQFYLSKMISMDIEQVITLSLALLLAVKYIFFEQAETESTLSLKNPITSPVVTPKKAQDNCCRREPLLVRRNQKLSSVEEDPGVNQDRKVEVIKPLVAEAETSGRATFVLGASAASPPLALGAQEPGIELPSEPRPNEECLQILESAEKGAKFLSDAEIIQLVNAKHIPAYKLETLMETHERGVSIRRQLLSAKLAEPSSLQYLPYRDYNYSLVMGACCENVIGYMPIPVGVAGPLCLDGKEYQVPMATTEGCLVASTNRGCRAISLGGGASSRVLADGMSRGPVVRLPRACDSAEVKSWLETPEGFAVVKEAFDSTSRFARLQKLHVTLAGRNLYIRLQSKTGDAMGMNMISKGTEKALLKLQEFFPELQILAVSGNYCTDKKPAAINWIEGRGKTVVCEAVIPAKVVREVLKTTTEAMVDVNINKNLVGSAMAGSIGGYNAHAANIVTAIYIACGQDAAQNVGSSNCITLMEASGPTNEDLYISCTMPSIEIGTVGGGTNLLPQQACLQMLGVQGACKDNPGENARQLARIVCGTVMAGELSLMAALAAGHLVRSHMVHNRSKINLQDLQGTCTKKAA
# Protocol: method A: in vitro method of H. J. Knauss et al., inhibition of 50% of the enzymatic activity
# Format: biochemical
# Measurement Context: compounds tested as the sodium salts of their corresponding hydroxy acid forms
Attribute Measured: pIC50
One number for each entry, as −log10 of the molar value.

// known answers, use as guide
Molecule | pIC50
Cc1cc(C)cc(-c2cc(C)cc(C)c2C=CC2CC(O)CC(=O)O2)c1 (stereo not shown) | 7.82
Cc1cc(C)c(C=CC2CC(O)CC(=O)O2)c(-c2ccc(F)c(C)c2)c1 (stereo not shown) | 8.15

Next, consider the following molecule.
QUERY: Entry O=C1C[C@@H](O)C[C@H](CCc2c(Cl)cc(Cl)cc2OCc2ccccc2)O1 has what pIC50?
RESULT: 7.17

Data provenance is patent US4375475A.
